# Papp A→B at 150 min, 10 μg/ml listing for each entry below
assay: Caco-2 permeability study (Examples 1, 2 and 4, Table 3); format: in vitro ADME, human; details: human, Caco-2; Table 3, n = 3; read-out: Papp AB
Answer format: numeric, ×10⁻⁶ cm/s implied, no suffix.

Solved entries (count: 3):
C[C@@H]1NC(=O)[C@H](CC(=O)O)NC(=O)CNC(=O)[C@H](CCCNC(=N)N)NC(=O)[C@@H](C)N(C)C(=O)[C@H](C)N(C)C1=O [Peptide 12, c(*aRGDA*A)]: 0.04
C[C@@H]1NC(=O)[C@H](CC(=O)O)NC(=O)CNC(=O)[C@@H](CCCNC(=N)N)NC(=O)[C@H](C)N(C)C(=O)[C@H](C)N(C)C1=O [Peptide 23, c(rGDA*A*A)]: 0.61
C[C@@H]1NC(=O)[C@H](C)N(C)C(=O)[C@H](C)NC(=O)[C@H](CC(=O)O)NC(=O)CNC(=O)[C@@H](CCCNC(=N)N)N(C)C1=O [Peptide 5, c(*rGDA*AA)]: 0.38

Query molecule follows.
## Task Could you share which Papp A→B at 150 min, 10 μg/ml value was measured for CC(C)[C@@H]1C(=O)N[C@@H](CCCNC(=N)N)C(=O)NCC(=O)N[C@@H](CC(=O)O)C(=O)N[C@@H](C)C(=O)N(C)[C@@H](C)C(=O)N1C [Peptide 29, c(*vRGDA*A)] ?
## Result 0.07

###

# logD listing for each entry below
details: pH 7.4, LogD, pH 7.4, single determinations
Numbered stars: 1 amine (or outer) side, 2 acyl side, 3 side chain; on linkers, the order of the positions; unused ones are H or OH. Square brackets hold non-standard residues; d marks the D form. Peptide text beside a SMILES is read from it. X2 = CCCCCCOC(=O)N=C(N)NCCC[C@H](N[*:1])C(=O)[*:2]; dNMeV = CN[C@@H](C(=O)O)C(C)C; NMeA = CN[C@@H](C)C(=O)O

CCCCCCOC(=O)N=C(N)NCCC[C@@H]1NC(=O)[C@@H](C(C)C)N(C)C(=O)[C@H](C)N(C)C(=O)[C@H](C)NC(=O)[C@H](CC(=O)OC)NC(=O)CNC1=O [#29P-Hoc] (cyclo(A[NMeA][dNMeV][X2]GD(OMe))): 1.91

## Task Could you share which logD value was measured for CCCCCCOC(=O)N=C(NCCC[C@@H]1NC(=O)[C@H](C(C)C)N(C)C(=O)[C@@H](Cc2ccccc2)NC(=O)[C@H](CC(=O)OC)NC(=O)CNC1=O)NC(=O)OCCCCCC ?
## Result 3.76

###

# efflux ratio at 90 min, 10 µM listing for each entry below
experiment: in vitro; conditions: human, Caco-2, pH 7.4
Numbered stars: 1 amine (or outer) side, 2 acyl side, 3 side chain; on linkers, the order of the positions; unused ones are H or OH. Square brackets hold non-standard residues; d marks the D form. Peptide text beside a SMILES is read from it. X2 = CCCCCCOC(=O)N=C(N)NCCC[C@H](N[*:1])C(=O)[*:2]; dNMeV = CN[C@@H](C(=O)O)C(C)C; NMeA = CN[C@@H](C)C(=O)O
API note: the answer field is a bare number with no unit suffix.

CCCCCCOC(=O)N=C(N)NCCC[C@@H]1NC(=O)[C@@H](C(C)C)N(C)C(=O)[C@H](C)N(C)C(=O)[C@H](C)NC(=O)[C@H](CC(=O)OC)NC(=O)CNC1=O [#29P-Hoc] (cyclo(A[NMeA][dNMeV][X2]GD(OMe))): 1

Query compound follows.
## Task Could you share which efflux ratio at 90 min, 10 µM value was measured for CCCCCCOC(=O)N=C(NCCC[C@@H]1NC(=O)[C@H](C(C)C)N(C)C(=O)[C@@H](Cc2ccccc2)NC(=O)[C@H](CC(=O)OC)NC(=O)CNC1=O)NC(=O)OCCCCCC [Cil.-P, c(f*VR(Hoc)2GD)] ?
## Result 1.1
